Test system: 323965-272-R-J2-PDC complex spheroid growth, % test/control;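 also: compound exposure lasted 7 days starting three days after spheroid seeding; 100% = DMSO vehicle control wells with viability set relative to vehicle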
measurementDescription: Anticancer human tumor 323965-272-R-J2-PDC patient-derived pancreatic carcinoma cell line growth inhibition [Asc]
recordedConditions: second compound 0.1 µM; first compound 1 µM; hits give low values
valueKind: viability, T/C (%)
The reply should be a number in %, with the unit left off.

Reference set, count: 5
compound	readingUnit	viability, T/C
C=C(F)C(=O)N1CCN(c2nc(OCC3CCCN3C)nc3c2CCN(c2cccc4cccc(Cl)c24)C3)CC1CC#N (configuration not stated) + Cc1c(S(C)(=O)=O)c(-c2cc(F)cc(N3CCN(c4ccc(NS(=O)(=O)c5ccc(NC(CCN6CCC(C(=O)OCCCP(=O)(O)O)CC6)CSc6ccccc6)c(S(=O)(=O)C(F)(F)F)c5)cc4)CC3)c2)c(-c2ccc(Cl)cc2)n1C(C)C	%	66.7
COc1c(OCCCN2CCOCC2)ccc2c3n(c(=NC(=O)c4cnc(N)nc4)nc12)CCN3 + CNC(C)C(=O)NC1CN(S(=O)(=O)c2cccc(S(=O)(=O)N3CCC4CCC(C(=O)NC(c5ccccc5)c5ccccc5)N4C(=O)C(NC(=O)C(C)NC)C3)c2)CCC2CCC(C(=O)NC(c3ccccc3)c3ccccc3)N2C1=O	%	29.4
C#Cc1c(F)ccc2cc(O)cc(-c3ncc4c(N5CC6CCC(C5)N6)nc(OCC56CCCN5CC(F)C6)nc4c3F)c12 (configuration not stated) + CNC(C)C(=O)NC1CN(S(=O)(=O)c2cccc(S(=O)(=O)N3CCC4CCC(C(=O)NC(c5ccccc5)c5ccccc5)N4C(=O)C(NC(=O)C(C)NC)C3)c2)CCC2CCC(C(=O)NC(c3ccccc3)c3ccccc3)N2C1=O	%	91.2
C#Cc1c(F)ccc2cc(O)cc(-c3ncc4c(N5CC6CCC(C5)N6)nc(OCC56CCCN5CC(F)C6)nc4c3F)c12 (configuration not stated) + Cc1c(S(C)(=O)=O)c(-c2cc(F)cc(N3CCN(c4ccc(NS(=O)(=O)c5ccc(NC(CCN6CCC(C(=O)OCCCP(=O)(O)O)CC6)CSc6ccccc6)c(S(=O)(=O)C(F)(F)F)c5)cc4)CC3)c2)c(-c2ccc(Cl)cc2)n1C(C)C	%	93.2
CCN1CCN(Cc2ccc(Nc3ncc(F)c(-c4cc(F)c5nc(C)n(C(C)C)c5c4)n3)nc2)CC1 + Cc1c(S(C)(=O)=O)c(-c2cc(F)cc(N3CCN(c4ccc(NS(=O)(=O)c5ccc(NC(CCN6CCC(C(=O)OCCCP(=O)(O)O)CC6)CSc6ccccc6)c(S(=O)(=O)C(F)(F)F)c5)cc4)CC3)c2)c(-c2ccc(Cl)cc2)n1C(C)C	%	73.6

Req: Param item = C=C(F)C(=O)N1CCN(c2nc(OCC3CCCN3C)nc3c2CCN(c2cccc4cccc(Cl)c24)C3)CC1CC#N (configuration not stated) + CNC(C)C(=O)NC1CN(S(=O)(=O)c2cccc(S(=O)(=O)N3CCC4CCC(C(=O)NC(c5ccccc5)c5ccccc5)N4C(=O)C(NC(=O)C(C)NC)C3)c2)CCC2CCC(C(=O)NC(c3ccccc3)c3ccccc3)N2C1=O ; retrieve measured viability, T/C.
Resp: 53.4

Req: Would you mind doing C=CC(=O)N1CCN(c2nc(=O)n(-c3c(C)ccnc3C(C)C)c3nc(-c4c(O)cccc4F)c(F)cc23)C(C)C1 (configuration not stated) + CNC(C)C(=O)NC1CN(S(=O)(=O)c2cccc(S(=O)(=O)N3CCC4CCC(C(=O)NC(c5ccccc5)c5ccccc5)N4C(=O)C(NC(=O)C(C)NC)C3)c2)CCC2CCC(C(=O)NC(c3ccccc3)c3ccccc3)N2C1=O as well?
Resp: 58.8
